Recorded clearance values for a group of compounds are listed next.
Experiment: Clearance in Sprague-Dawley rat at 2 m/kg, iv
Format: ADME, organism-based
Measurement setup: in vivo
Reported property: clearance (mL/min/kg)

> print(dat)
                               input.smiles  reported.property  observed
1  C[C@@H]1CN[C@@H](C2CCCCC2)C(=O)N(C)[C@H](C)C(=O)N[C@H](Cc2ccc(F)cc2)C(=O)NCCCc2ccccc2O1          clearance        43
2  C[C@@H]1C(=O)N[C@H](Cc2ccc(F)cc2)C(=O)NCCCc2ccccc2OCCN[C@@H](C2CC2)C(=O)N1C          clearance        72
3  C[C@@H]1CN[C@@H](C2CC2)C(=O)N(C)[C@H](C)C(=O)N[C@H](Cc2ccccc2)C(=O)NCCCc2ccccc2O1          clearance        25
4  C[C@@H]1CN[C@@H](C2CC2)C(=O)N(C)[C@H](C)C(=O)N[C@H](Cc2ccc(F)cc2)C(=O)NCCCc2ccc(F)cc2O1          clearance         9
5  C[C@@H]1CN[C@@H](C2CC2)C(=O)N(C)[C@H](C)C(=O)N[C@H](Cc2ccc(Cl)cc2)C(=O)NCCCc2ccccc2O1          clearance        24
6  CC[C@H](C)[C@@H]1NC[C@@H](C)Oc2ccccc2CCCNC(=O)[C@@H](Cc2ccc(F)cc2)NC(=O)[C@@H](C)N(C)C1=O          clearance        40
7  CC(C)[C@@H]1NC[C@@H](C)Oc2ccccc2CCCNC(=O)[C@@H](Cc2ccc(F)cc2)NC(=O)[C@@H](C)N(C)C1=O          clearance        40

###

Experiment: Elimination half life in cynomolgus monkey at 0.5 mg/kg, iv
Measurement setup: in vivo, read-out: beta t1/2
Reported property: half-life (min)

> print(dat)
                               input.smiles  observed
1  C[C@@H]1C(=O)N[C@H](Cc2ccc(F)cc2)C(=O)NCCCc2ccc(F)cc2OCCN[C@@H](C2CC2)C(=O)N1C        29

###

The reader will find reported log10 of AUC(0-inf) values listed item by item below.
Experiment: AUC (0 to infinity) in Sprague-Dawley rat at 8 mg/kg, po
Format: ADME, organism-based
Parameters: time infinity, dose 8 mg/kg, route oral
Measurement setup: plasma
Reported property: log10 of AUC(0-inf) (log10 of the value in µM·h)

> print(dat)
                                   compound  observed
1  C[C@@H]1C(=O)N[C@H](Cc2ccc(F)cc2)C(=O)NCCCc2ccc(F)cc2OCCN[C@@H](C2CC2)C(=O)N1C      0.22
2  CC[C@H](C)[C@@H]1NCCOc2ccccc2CCCNC(=O)[C@@H](Cc2ccc(Cl)cc2)NC(=O)[C@@H](C)N(C)C1=O     -1.23
3  C[C@@H]1CN[C@@H](C2CC2)C(=O)N(C)[C@H](C)C(=O)N[C@H](Cc2ccc(Cl)cc2)C(=O)NCCCc2ccccc2O1      0.09
4  C[C@@H]1CN[C@@H](C2CC2)C(=O)N(C)[C@H](C)C(=O)N[C@H](Cc2ccc(F)cc2)C(=O)NCCCc2ccccc2O1.Cl.O [ULIMORELIN HYDROCHLORIDE]      0.14
5  C[C@@H]1CN[C@@H](C2CC2)C(=O)N(C)[C@H](C)C(=O)N[C@H](Cc2ccc(F)cc2)C(=O)NCCCc2ccc(F)cc2O1      0.32
